Ref: patent EP1388586A2

biological target: DRB1*1501 (DR2w2b) (Homo sapiens, UniProt P01903+P01911); construct: expressed in transfected cells; host or cells: L466.1 transfected fibroblasts; test: Class II peptide-binding assay, DR2w2b (DR2w2B1); conditions: read-out: In IC50 Format DR2w2B1 nM; Table VIII; values in parentheses read as lower bounds
Ends that are not written are not given here.
Value Type: IC50

May I ask what IC50 has been recorded for ARLLDIDETEYHADG [Peptide 39.0366] ?
> 15.2 µM

###

Answer each item with its documented IC50.
target: DRB1*1101 (DR5w11) (Homo sapiens, UniProt P01903+P01911, A100R/A169T/A87E/I96F/K41T/L162R/M171V/P40S/Q125H/Q178H/Q39Y/Q99D/R42S/S66Y/T262R/V115G/W38E); construct: used as sources of human HLA class II molecules; endogenous in cells; host or cells: SWEIG (EBV-transformed homozygous B cell line); test: Class II peptide-binding assay, DR5w11; conditions: purified HLA DR5w11; read-out: DR5w11 nM (In IC50 Format);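 further: competition by unlabeled test peptide against iodinated probe peptide binding to affinity-purified HLA-DR, class II amount titrated beforehand, half-maximal inhibitory concentration read as approximate Kd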
Sequence (P01903 26-254, other chains not shown): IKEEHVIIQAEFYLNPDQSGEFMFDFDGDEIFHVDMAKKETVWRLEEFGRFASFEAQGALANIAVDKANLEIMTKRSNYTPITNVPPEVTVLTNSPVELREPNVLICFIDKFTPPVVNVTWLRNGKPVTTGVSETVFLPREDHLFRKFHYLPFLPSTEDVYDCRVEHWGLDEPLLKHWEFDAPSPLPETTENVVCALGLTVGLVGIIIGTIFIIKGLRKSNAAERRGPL
Ends that are not written are not given here.
Answers are plain numbers, in nM.

>>> print(df.to_string())
                    monomer_sequence   u  test_value
0  LMQYIKANSKFIGITE [Peptide 812.03]  nM        13.9

May I ask what IC50 has been recorded for MQYIKANSKFIGITE [Peptide 812.05] ?
6.7
